Reference source: PubChem BioAssay AID588832

System: hedgehog, isoform A (Drosophila melanogaster)
ASSAY SUMMARY: Hh protein inhibition, biochemical readout – plate reader, single concentration, primary screen (AID 588832);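 also: 0% = neutral control wells and 100% = positive control wells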
ASSAY CONDITIONS: Biochemical plate reader assay, at 30.3 µM, hits give high values
Fewer than 10 of roughly 8,000 compounds were called active. Only a sample is shown.
Could you please report measured inhibition for the items listed next?

Consider the following illustrative entries.
- COc1ccccc1C(=O)OCn1nnc2ccccc2c1=O: -5% (inactive)
- CC(=O)O[C@H]1C(=O)[C@@]2(C)C([C@H](OC(=O)c3ccccc3)[C@]3(O)C[C@H](OC(=O)[C@H](O)[C@@H](NC(=O)c4ccccc4)c4ccccc4)C(C)=C1C3(C)C)[C@]1(OC(C)=O)CO[C@@H]1C[C@H]2O (some centres undefined): 5.12% (inactive)
- CC(C)(C)C(=O)NCCc1nc2ccccc2n1CC(=O)c1ccc(Cl)cc1: 0% (inactive)

Lab note: next compound to report on.
Lab book: inhibition of COc1ccc(-c2nc(CS(=O)CC(=O)NCCC3=CCCCC3)c(C)o2)cc1 (centres undefined) noted as 7.69% (inactive)
